Numbers sourced from PubChem BioAssay (NCI).

# Tested on: MDA-MB-435 melanoma
# Assay Summary: NCI-60 one-dose screen, 48 h (100 = growth as untreated, 0 = no growth, -100 = all killed)
# Condition Set: 10 µM unless noted
# Experimental: Growth inhibition of the MDA-MB-435 human Melanoma tumor cell line is measured as a screen for anti-cancer activity. Cells are grown in 96 well plates and exposed to the test compound for 48 hours. Compounds are tested at a single concentration, which is 10^-5 M for most compounds. The reported endpoint is percent growth (GI% or GIPRCNT), where numbers from 0 - 100% represent growth inhibition, and numbers from -100% - 0 represent cell death. […]
About 83,000 compounds went through this panel and 20% of them were active in at least one assay; those are over-represented in the sample as a whole.
Label rule, in plain words: growth of 90% and up is Met, under 90% is Not met.

# Compound, Class Label
measured = [
    ("COc1cc(-c2n[nH]nc2-c2ccccn2)cc(OC)c1OC", "Met"),
    ("C[C@H]1C(=O)N2c3ccccc3[C@@]3(O)C[C@@H](n4cnc5ccccc5c4=O)C(=O)N1[C@@H]23", "Met"),
    ("CCCCCCCC[Si](OCC)(OCC)OCC", "Met"),
    ("CN(C)CCCNc1nn2c(=O)c3ccccc3nc2c2ccccc12", "Not met"),
    ("CC1C(C)N(C(=O)CCl)c2ccccc2N1C(=O)CCl (stereo unspecified)", "Not met"),
    ("COc1ccc(C(=O)COc2cccc(/C=C3\\COc4ccc5ccccc5c4C3=O)c2)cc1", "Not met"),
    ("Nc1c(C(=O)Nc2cccc(Cl)c2)sc2nc3c(cc12)C(O)CCC3 (stereo unspecified)", "Not met"),
    ("CC(C)N(Cc1ccccc1)c1c(S)ssc1=S", "Not met"),
    ("O=C(O)C1CCN(S(=O)(=O)c2ccc(-c3ccccc3)cc2)CC1", "Met"),
]

----------
# System: MDA-MB-435 melanoma
# Assay Summary: NCI-60 one-dose screen, 48 h (100 = growth as untreated, 0 = no growth, -100 = all killed)
# Condition Set: 10 µM unless noted
Compounds without any hit were thinned out: in the full panel of roughly 83,000, 20% have a hit.
Just a reminder that ties go to class 0: only growth strictly below 80% counts as class 1.

# Molecule, Measured On, Class Label
rows = [
    ("COc1ccc(NC(=O)c2ccccc2-c2ccccc2)c(C(N)=O)c1", "MDA-MB-435 melanoma", "class 1"),
    ("CCOC(=O)C(Br)=P(c1ccccc1)(c1ccccc1)c1ccccc1", "MDA-MB-435 melanoma", "class 0"),
    ("Cc1nn(-c2ccccc2)c2nc(N)c(C3=NCCO3)nc12", "MDA-MB-435 melanoma", "class 0"),
    ("O=C(Nc1ccccc1S)c1ccccc1", "MDA-MB-435 melanoma", "class 0"),
    ("O=C(Nc1ccccc1OC(=O)c1ccccc1)c1ccccc1", "MDA-MB-435 melanoma", "class 0"),
    ("CC(NC(=O)Oc1cccc2ccccc12)c1ccccc1 (stereo not given)", "MDA-MB-435 melanoma", "class 0"),
    ("COc1ccc(C(=O)/C=C/c2ccc(C)cc2)cc1OC", "MDA-MB-435 melanoma", "class 0"),
    ("Cc1sc2nc(NCCc3cccs3)[nH]c(=O)c2c1C", "MDA-MB-435 melanoma", "class 0"),
    ("Cc1ccccc1NC(=O)NC(CC(N)=O)c1ccc2c(c1)nc(-c1cccc(Oc3ccc(C(C)(C)C)cc3)c1)n2CCCN1CCCCC1C (stereo not given)", "MDA-MB-435 melanoma", "class 1"),
    ("COc1cc(/C=C/C(=O)CC(=O)/C=C/c2ccc(OC(=O)CCNC34CC5CC(CC(C5)C3)C4)c(OC)c2)ccc1OC(=O)CCNC12CC3CC(CC(C3)C1)C2", "MDA-MB-435 melanoma", "class 1"),
]
